Tested on: NOMO1
Assay: cell viability relative to DMSO control; higher = less cytotoxic
Conditions: HPLM + 10% dialyzed FBS; 48 h; 0.00702 µM
Attribute: cell viability
Assay Readout: cell viability (%)

Molecule	Measured Target	Assay Readout	Data Value
N[C@@H]1CONC1=O	NOMO1	cell viability	112
CCCCCCCCCCCCCC(=O)N[C@H](CO)[C@H](O)c1ccc([N+](=O)[O-])cc1	NOMO1	cell viability	99.1
C[C@@H]1CCO[C@H]2CN\3/C=C(/C(=O)NCC4=C(F)C=C(F)C=C4)C(=O)\C(=C3C(=O)N12)O	NOMO1	cell viability	117
COC(=O)c1ccc2c(c1)NC(=O)/C2=C(\Nc1ccc(N(C)C(=O)CN2CCN(C)CC2)cc1)c1ccccc1	NOMO1	cell viability	106
COC1=CC=C(C(=C1)OC(C)C)C/2=N/[C@@H]([C@@H](N2C(=O)N3CCNC(=O)C3)C4=CC=C(Cl)C=C4)C5=CC=C(Cl)C=C5	NOMO1	cell viability	114
NC[C@H]1O[C@H](O[C@@H]2[C@H](O)[C@@H](O[C@H]3O[C@H](CO)[C@@H](O)[C@H](N)[C@H]3O)[C@H](N)C[C@@H]2N)[C@H](O)[C@@H](O)[C@@H]1O	NOMO1	cell viability	121
CNc1nc(Nc2cnn([C@H]3CCN(C4COC4)C[C@@H]3F)c2Cl)ncc1C(F)(F)F	NOMO1	cell viability	115

----------
Tested on: NOMO1
Assay: cell viability relative to DMSO control; higher = less cytotoxic
Conditions: RPMI 5 mM glucose + 10% FBS; 48 h; 46.1 µM
Assay Readout: cell viability (%)

> print(dat)
                                   molecule  measured.target  data.value
1  CN1\C=N/C2=CC=C(NC3=CC(=CC=C3C)NC(=O)C4=CC(=CC=C4)C(C)(C)C#N)C=C2C1=O            NOMO1        28.1
2  O=C(c1ccccc1)c1ccc2n1CCC2C(=O)O (stereo not given)            NOMO1        98.6
3          O=P(O)(O)C(O)(Cn1ccnc1)P(=O)(O)O            NOMO1         101
4  CC(C)c1cc(C(C)C)c(CC(=O)N[S+](=O)([O-])Oc2c(C(C)C)cccc2C(C)C)c(C(C)C)c1            NOMO1        86.9
5  NC(=O)c1ccc(N(C(N)=O)c2c(F)cccc2F)nc1-c1ccc(F)cc1F            NOMO1          88

----------
Test system: P12-Ichikawa
Experiment: cell viability relative to DMSO control; higher = less cytotoxic
Settings: RPMI 5 mM glucose + 10% dialyzed FBS; 48 h; 5.12 µM
Assay Readout: cell viability (%)

> print(dat)
                                    molecule   assay.readout  unit.descriptor  data.value
 1  CCCCOc1c(C(=O)c2c(F)cc(C)cc2F)cnc2[nH]ncc12  cell viability                %        78.9
 2  CC(C)(O)CC(=O)NCCn1ccc2ncnc(Nc3ccc(Oc4cccc(C(F)(F)F)c4)c(Cl)c3)c21  cell viability                %        95.8
 3      CC1=CC(=CC(=C1C\C2=N\CCN2)C)C(C)(C)C  cell viability                %        97.9
 4  CCCNC(=O)Nc1ccc(Oc2ncnc3cc(OC)c(OC)cc23)cc1Cl  cell viability                %        86.8
 5  CN1CCCN(CC1)C2=CC=C3C(=O)\C(=C/4SC5=C(C=CC=C5)N4C3=N2)C(=O)NCC6=CN=C(C)C=N6  cell viability                %        85.8
 6  COc1cccc2c1C(=O)c1c(O)c3c(c(O)c1C2=O)C[C@@](O)(C(=O)CO)C[C@@H]3O[C@H]1C[C@H](N)[C@H](O)[C@H](C)O1  cell viability                %        7.81
 7  COc1cc[nH]c2ncc(C(=O)C(=O)N3CCN(C(=O)c4ccccc4)C[C@H]3C)c1-2  cell viability                %        99.4
 8  CCCCN(CCCC)CC(O)c1cc(Cl)cc2c1-c1ccc(Cl)cc1/C2=C/c1ccc(Cl)cc1 (stereo not given)  cell viability                %         104
 9                   Nc1c2c(nc3ccccc13)CCCC2  cell viability                %         102
10  CC(=O)Oc1ccccc1C(=O)Nc1ncc([N+](=O)[O-])s1  cell viability                %          82
11  CN(C)CC(C)(C)CNc1nn2c(-c3ccccc3)nnc2cc1C1CCC1  cell viability                %        88.1
12  CCCCCNC(=O)N1CCC(CN(Cc2ccc(Cl)cc2)Cc2ccc([N+](=O)[O-])s2)C1 (stereo not given)  cell viability                %         101
13             CCc1ccc(/C=C2/SC(=S)NC2=O)cc1  cell viability                %        81.9
14  C[C@]12CC[C@H]3[C@@H](CCC4=CC(=O)CC[C@@H]43)[C@@H]1CC[C@@H]2OC(=O)CCc1ccccc1  cell viability                %         112
15  NC(=O)c1ccc(N(C(N)=O)c2c(F)cccc2F)nc1-c1ccc(F)cc1F  cell viability                %        91.2
16                           N[C@@H]1CONC1=O  cell viability                %        96.5
17  COc1cc2c(cc1OC)CN(CCc1ccc(NC(=O)c3cc(OC)c(OC)cc3NC(=O)c3cnc4ccccc4c3)cc1)CC2  cell viability                %        56.4
18  C=C[C@H]1CN2CCC1C[C@@H]2C(O)c1ccnc2ccc(OC)cc12 (stereo not given in full)  cell viability                %         123
19  Nc1ccc([S+](=O)([O-])Nc2ccnn2-c2ccccc2)cc1  cell viability                %         103
20  CC(C(=O)O)c1ccc2c(c1)CC(=O)c1ccccc1S2 (stereo not given)  cell viability                %         104
